target entity: DPP IV (Homo sapiens, UniProt P27487)
Sequence (P27487 whole entry, species assumed): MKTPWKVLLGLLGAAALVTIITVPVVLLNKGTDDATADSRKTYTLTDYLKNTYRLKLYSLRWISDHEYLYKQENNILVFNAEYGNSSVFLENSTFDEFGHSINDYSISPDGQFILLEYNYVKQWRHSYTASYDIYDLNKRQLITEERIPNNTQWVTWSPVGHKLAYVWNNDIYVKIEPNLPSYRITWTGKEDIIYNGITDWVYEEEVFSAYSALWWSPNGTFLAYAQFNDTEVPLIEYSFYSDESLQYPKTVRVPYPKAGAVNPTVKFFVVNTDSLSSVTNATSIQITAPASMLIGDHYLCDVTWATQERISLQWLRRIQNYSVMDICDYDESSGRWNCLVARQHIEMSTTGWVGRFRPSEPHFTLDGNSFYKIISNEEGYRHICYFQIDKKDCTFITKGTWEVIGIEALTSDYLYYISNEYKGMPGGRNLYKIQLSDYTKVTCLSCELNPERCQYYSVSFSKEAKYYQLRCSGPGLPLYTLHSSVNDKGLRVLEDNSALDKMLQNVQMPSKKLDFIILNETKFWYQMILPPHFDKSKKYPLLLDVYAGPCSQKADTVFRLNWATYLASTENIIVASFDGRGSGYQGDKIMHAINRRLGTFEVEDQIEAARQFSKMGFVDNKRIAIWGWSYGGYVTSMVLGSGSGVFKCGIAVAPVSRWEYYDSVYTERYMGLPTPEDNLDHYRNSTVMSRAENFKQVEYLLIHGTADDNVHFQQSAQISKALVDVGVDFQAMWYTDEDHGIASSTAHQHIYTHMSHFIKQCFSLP
method description: Stability against DPP IV enzyme
Assay type: in vitro ADME
condition: 2 μM, 37° C., 24 h
Please go through the items and note down their % degradation in 24 h when incubated with DPP-IV enzyme.
Give your result as the value with the unit written after it.

Batch: % degradation in 24 h when incubated with DPP-IV enzyme for all items listed.
1. CCc1cc(OC)ccc1-c1ccc(CC(NC(=O)[C@H](CC(=O)O)NC(=O)[C@H](CO)NC(=O)[C@@H](NC(=O)C(C)(Cc2ccccc2F)NC(=O)[C@@H](NC(=O)CNC(=O)[C@H](CCC(N)=O)NC(=O)C2(NC(=O)[C@@H](N)Cc3c[nH]cn3)CC2)[C@@H](C)O)[C@@H](C)O)C(=O)NC(Cc2ccc(-c3ccccc3C(F)(F)F)cc2)C(N)=O)cc1 (single isomer, unassigned)
2. CCc1cc(OC)ccc1-c1ccc(CC(NC(=O)[C@H](CC(=O)O)NC(=O)[C@H](CO)NC(=O)[C@@H](NC(=O)[C@H](Cc2ccccc2)NC(=O)[C@@H](NC(=O)CNC(=O)[C@H](CCC(N)=O)NC(=O)C(C)(C)NC(=O)[C@@H](N)Cc2c[nH]cn2)[C@@H](C)O)[C@@H](C)O)C(=O)NC(Cc2ccc(-c3ccccc3C)cc2)C(N)=O)cc1 (single isomer, unassigned)

1: 00%; 2: 00%
